The reported measurements were obtained from patent US5294619A.

List of pIC50 tested on dopamine-2 receptor (Rattus norvegicus, UniProt P61169).
Sequence (P61169 whole entry): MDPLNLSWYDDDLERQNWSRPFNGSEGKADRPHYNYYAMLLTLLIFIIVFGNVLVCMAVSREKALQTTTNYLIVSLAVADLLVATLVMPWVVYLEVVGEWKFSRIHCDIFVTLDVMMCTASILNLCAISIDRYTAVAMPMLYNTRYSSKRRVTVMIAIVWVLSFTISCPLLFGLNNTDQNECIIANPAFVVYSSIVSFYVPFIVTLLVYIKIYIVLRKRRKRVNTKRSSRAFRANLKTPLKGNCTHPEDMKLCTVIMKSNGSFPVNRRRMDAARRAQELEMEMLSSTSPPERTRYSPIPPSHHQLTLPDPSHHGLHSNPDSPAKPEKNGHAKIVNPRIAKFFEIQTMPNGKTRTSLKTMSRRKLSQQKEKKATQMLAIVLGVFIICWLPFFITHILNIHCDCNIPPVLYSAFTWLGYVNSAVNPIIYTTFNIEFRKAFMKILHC
pIC50: −log10 of the molar value.
measured-endpoint: pIC50

{"columns": ["compound", "pIC50"],
 "data": [
  ["COc1ccccc1C1CCN(CCc2ccc3c(c2)CC(=O)N3)CC1", 7.28]
]}

1. COc1ccccc1C1CCN(CCCCc2ccc(-c3csc(N)n3)cc2)CC1
2. Oc1ccc(CCN2CCC(c3cccc(C(F)(F)F)c3)CC2)cc1
3. Cc1nc2ccccn2c(=O)c1CCN1CCC(c2cccc3ccccc23)CC1
4. COc1ccccc1C1CCCN(CCCCc2ccc(-c3csc(N)n3)cc2)C1 (centres unmarked)
Ask | Ordering criterion: pIC50; begin with the maximum. Provide the labels, sequenced as the question asks.
Reply | 1, 3, 4, 2
(1: 7.29, 3: 6.94, 4: 6.61, 2: 6.22)
